Experiment: ATG_TGFb_CIS: Attagene CIS-FACTORIAL HepG2 Assay for human Transforming Growth Factor (TGF) (AID 2282967)
Conditions: HepG2 Attagene CIS TGFb reporter, mRNA transcription; actives raise or lower the signal
Protocol: ATG_CIS is a cell-based, multiplexed-readout assay that uses HepG2, a human liver cell line, with measurements taken at 24 hours after chemical dosing in a 24-well plate.ATG_TGFb_CIS is one of 52 assay component(s) measured or calculated from the ATG_CIS assay. […] This assay endpoint, ATG_TGFb_CIS, was analyzed with bidirectional fitting relative to DMSO as the negative control and baseline of activity. […]
Activity calls are given as the source filed them. How the source made its calls: active means hit-call score of the fitted dose curve at least 0.9, where 1 is the maximum; inactive means score below 0.9.
Readout: outcome

- Compound: "CCN(CC)C(=O)c1cccc(C)c1"
  outcome: "inactive"
- Compound: "CCOC(=O)C(C)Oc1ccc(Oc2nc3ccc(Cl)cc3o2)cc1 (centres undefined)"
  outcome: "inactive"
- Compound: "CCCCC(CC)COC(=O)c1ccccc1C(=O)O (centres undefined)"
  outcome: "inactive"
- Compound: "COC(=O)c1ccc(I)cc1S(=O)(=O)NC(=O)Nc1nc(C)nc(OC)n1"
  outcome: "inactive"
- Compound: "COc1nc(C)nc(NC(=O)NS(=O)(=O)c2ccccc2OCCCl)n1"
  outcome: "inactive"
- Compound: "S=C([S-])NCCNC(=S)[S-].[Mn+2]"
  outcome: "inactive"

Could you now look at the following compound, please?
*Q* Which outcome reading was recorded for the compound COC(=O)c1ccc(CNS(C)(=O)=O)cc1S(=O)(=O)NC(=O)Nc1nc(OC)cc(OC)n1 ?
*A* inactive

* * *

Assay: APR_HepG2_MitoMembPot_1hr: Apredica 1-hour HepG2 Assay for Mitochondrial Membrane Potential (AID 2282675)
Conditions: imaging, actives raise or lower the signal
Calls of active or inactive are those of the source. The calls were made as follows: active = hit-call score of the fitted dose curve at least 0.9, where 1 is the maximum; inactive = score below 0.9.
Please reply with one of these outcomes: 1 (active), -1 (inactive)

For orientation, consider the following solved cases.
- Molecule: "CCCCOCCOCCOCc1cc2c(cc1CCC)OCO2"
  Label Class: -1
- Molecule: "C#CCOC(=O)[C@@H](C)Oc1ccc(Oc2ncc(Cl)cc2F)cc1"
  Label Class: -1
- Molecule: "CCOC(=O)C(C)Oc1ccc(Oc2cnc3cc(Cl)ccc3n2)cc1 (stereo not drawn)"
  Label Class: -1

*Q* Query: recorded result category for CCOC(=O)[C@H](C)Oc1ccc(Oc2nc3ccc(Cl)cc3o2)cc1 in this test
*A* -1

*Q* Repeat for the following molecule: COCCO
*A* -1

*Q* Repeat for the following molecule: CCCCC(CC)CN1C(=O)C2C3C=CC(C3)C2C1=O (stereo not drawn)
*A* -1

* * *

Assay: ATG_NRF2_ARE_CIS: Attagene CIS-FACTORIAL HepG2 Assay for human Nuclear Factor Erythroid 2 Related Factor 2 (NFR2) response to Antioxidant Response Elements (ARE) (AID 2282992)
Details: HepG2 Attagene ARE/NRF2 reporter, transcription factor activity; actives raise or lower the signal
Active and inactive are the calls of the source. The calls were made as follows: active = hit-call score of the fitted dose curve at least 0.9, where 1 is the maximum; inactive = score below 0.9.
Please reply with one of these outcomes: class 1 = active, class 0 = inactive

For orientation, consider the following solved cases.
- Structure As Smiles: "CCCN(CCC)c1c([N+](=O)[O-])cc(C(F)(F)F)c(N)c1[N+](=O)[O-]"
  Label Class: "class 1"
- Structure As Smiles: "COC(=O)c1ccc(I)cc1S(=O)(=O)NC(=O)Nc1nc(C)nc(OC)n1"
  Label Class: "class 0"

Read the next record carefully.
*Q* Query: recorded result category for CCSC(=O)N(CC(C)C)CC(C)C in this test
*A* class 0

* * *

Read-out: ABC Transporter (ABCB1), ABCB1 (gene 5243)
Experiment: CLD_ABCB1_48hr: CellzDirect (CLD) Gene Expression Assay for ABC Transporter (ABCB1) at 48 hours (AID 2283695)
Results filed as inconclusive are left out. Calls of active or inactive are those of the source. The calls were made as follows: active = hit-call score of the fitted dose curve at least 0.9, where 1 is the maximum; inconclusive = response in the unintended direction; inactive = score below 0.9.
Please reply with one of these outcomes: y (active), n (inactive)

For orientation, consider the following solved cases.
- Compound: "O=C(Nc1ccc([N+](=O)[O-])cc1Cl)c1cc(Cl)ccc1O"
  Label Class: "n"
- Compound: "CCOC(=O)COc1cc(-n2ncc(C(F)(F)F)c(C)c2=O)c(F)cc1Cl"
  Label Class: "n"
- Compound: "CCCCCOC(=O)COc1cc(N2C(=O)C3=C(CCCC3)C2=O)c(F)cc1Cl"
  Label Class: "n"
- Compound: "CCNc1nc(N)nc(Cl)n1"
  Label Class: "n"
- Compound: "CCCN(CCC)c1c([N+](=O)[O-])cc(C(F)(F)F)c(N)c1[N+](=O)[O-]"
  Label Class: "n"
- Compound: "COC(=O)CSc1cc(N=c2sc(=O)n3n2CCCC3)c(F)cc1Cl"
  Label Class: "n"
- Compound: "COC(=O)c1ccc(I)cc1S(=O)(=O)NC(=O)Nc1nc(C)nc(OC)n1"
  Label Class: "n"
- Compound: "COC(=O)c1c(Cl)nn(C)c1S(=O)(=O)NC(=O)Nc1nc(OC)cc(OC)n1"
  Label Class: "n"

*Q* Query: recorded result category for COCCO in this test
*A* n

*Q* Repeat for the following compound: CCOC(=O)NCCOc1ccc(Oc2ccccc2)cc1
*A* n

*Q* Repeat for the following compound: CCC(O)=C1C(=O)CC(C(=O)O)CC1=O (stereo not given)
*A* n

*Q* Repeat for the following compound: COC(=O)c1ccc(CNS(C)(=O)=O)cc1S(=O)(=O)NC(=O)Nc1nc(OC)cc(OC)n1
*A* n

*Q* Repeat for the following compound: Cc1nn(C)c(Oc2ccccc2)c1C=NOCc1ccc(C(=O)OC(C)(C)C)cc1
*A* n

*Q* Repeat for the following compound: CCCCCCC(C)OC(=O)COc1nc(F)c(Cl)c(N)c1Cl (stereo not given)
*A* n

* * *

Test: APR_HepG2_MitoMass_1hr: Apredica 1-hour HepG2 Assay for Mitochondrial Mass (AID 2282674)
Details: high-content imaging, actives raise or lower the signal
Procedure: APR_HepG2_1hr is a cell-based, multiplexed-readout assay that uses HepG2, a human liver cell line, with measurements taken at 1 hour after chemical dosing in a 384-well plate.APR_HepG2_MitoMass_1hr is one of 10 assay component(s) measured or calculated from the APR_HepG2_1hr assay. […] This assay endpoint, APR_HepG2_MitoMass_1hr, was analyzed with bidirectional fitting relative to DMSO as the negative control and baseline of activity. […]
The source made the active and inactive calls. How the source made its calls: active means hit-call score of the fitted dose curve at least 0.9, where 1 is the maximum; inactive means score below 0.9.
Please reply with one of these outcomes: 1 for active, -1 for inactive

- Compound: "C=CCOC(Cn1ccnc1)c1ccc(Cl)cc1Cl (configuration not stated)"
  Label Class: -1
- Compound: "CCCCCCC(C)OC(=O)COc1nc(F)c(Cl)c(N)c1Cl (configuration not stated)"
  Label Class: 1
- Compound: "Oc1ccc(C(c2ccc(O)cc2)C(Cl)(Cl)Cl)cc1"
  Label Class: -1
- Compound: "O=C(O)C1(C(=O)Nc2ccc(Cl)cc2Cl)CC1"
  Label Class: -1
- Compound: "CSC(=O)c1cccc2nnsc12"
  Label Class: -1

*Q* Query: recorded result category for CCCCCOC(=O)COc1cc(N2C(=O)C3=C(CCCC3)C2=O)c(F)cc1Cl in this test
*A* -1

*Q* Repeat for the following compound: CCOC(=O)NCCOc1ccc(Oc2ccccc2)cc1
*A* -1

*Q* Repeat for the following compound: CCN(Cc1c(F)cccc1Cl)c1c([N+](=O)[O-])cc(C(F)(F)F)cc1[N+](=O)[O-]
*A* -1

*Q* Repeat for the following compound: CCC(O)=C1C(=O)CC(C(=O)O)CC1=O (configuration not stated)
*A* -1

*Q* Repeat for the following compound: O=C(Nc1ccc([N+](=O)[O-])cc1Cl)c1cc(Cl)ccc1O
*A* -1

*Q* Repeat for the following compound: CCOC(=O)COc1cc(-n2ncc(C(F)(F)F)c(C)c2=O)c(F)cc1Cl
*A* -1

*Q* Repeat for the following compound: CCCCOC(=O)C(C)Oc1ccc(Oc2ccc(C(F)(F)F)cn2)cc1 (configuration not stated)
*A* -1

* * *

Read-out: NAD(P)H dehydrogenase [quinone] 1 (NQO1), NQO1 (gene 1728)
Assay: LTEA_HepaRG_NQO1: Life Technologies and Expression Analysis (LTEA) Assay for NAD(P)H dehydrogenase [quinone] 1 (NQO1) using HepaRG (AID 2283526)
Details: mRNA level, 48 h; actives raise or lower the signal
Activity calls are given as the source filed them. How the source made its calls: active means hit-call score of the fitted dose curve at least 0.9, where 1 is the maximum; inactive means score below 0.9.
Please reply with one of these outcomes: active, inactive

- Molecule: "CCOC(=O)c1ccc(O)cc1"
  Label Class: "inactive"

*Q* Query: recorded result category for CCN(CC)C(=O)c1cccc(C)c1 in this test
*A* inactive

*Q* Repeat for the following molecule: CCCCOC(=O)C(C)Oc1ccc(Oc2ccc(C(F)(F)F)cn2)cc1 (configuration not stated)
*A* inactive

*Q* Repeat for the following molecule: CCC(C)OC(=O)N1CCCCC1CCO (configuration not stated)
*A* inactive

*Q* Repeat for the following molecule: CCCCCOC(=O)COc1cc(N2C(=O)C3=C(CCCC3)C2=O)c(F)cc1Cl
*A* inactive
